- Target entity: NK1 (Homo sapiens, UniProt P14210)
- Sequence (P14210 32-210 isoform P14210-6 limits assumed): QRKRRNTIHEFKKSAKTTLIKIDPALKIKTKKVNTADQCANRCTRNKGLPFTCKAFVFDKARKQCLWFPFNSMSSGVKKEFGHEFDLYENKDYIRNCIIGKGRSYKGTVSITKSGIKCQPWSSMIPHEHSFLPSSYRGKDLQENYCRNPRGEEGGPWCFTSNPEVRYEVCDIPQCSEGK
- Method: SPR steady-state binding to immobilized NK1 (Biacore T100)
- Set-up: made in house; host or cells: Pichia pastoris
- Recorded conditions: steady-state binding constant from SPR; fragment hits (Table 3, text); read-out: KD
pKd: −log10 of the molar value.

Cpd smiles	pKd
Cc1cccc(C(N)=O)c1C	3.07
COc1ccc(C#N)cn1	3.46
Cc1nc(CC(=O)O)cs1	3.37
CCCc1ccc(C(C)=O)cc1	3.03
O=C(O)CCc1ccco1	3.51
Cc1cc(Cl)ccc1C(=O)O	3.44
NC(=S)N1CCOCC1	3.43
Nc1ncccn1	3.11
O=C(O)c1coc2c1C(=O)CCC2	3.38

---

- Target entity: UniProt P14210
- Method: SPR steady-state binding to immobilized NK1 (Biacore T100)
- Set-up: made in house; host or cells: Pichia pastoris
- Recorded conditions: steady-state binding constants; piperazine-like compounds; immobilized NK1, PBS pH 7.4; read-out: KD in SPR
pKd: −log10 of the molar value.
Short version: pKd at least 2 is YES, less is NO.

Compound	Target entity	Classification
O=S(=O)(O)CCCNC1CCCCC1	UniProt P14210	YES
O=S(=O)(O)CCN1CCN(CCS(=O)(=O)O)CC1 [PIPES, reference compound]	UniProt P14210	NO
O=S(=O)(O)CCN1CCN(CCO)CC1	UniProt P14210	YES
O=S(=O)(O)CCCN1CCN(CCO)CC1	UniProt P14210	YES
O=S(=O)(O)CCNC1CCCCC1	UniProt P14210	NO
O=S(=O)(O)CCN1CCOCC1	UniProt P14210	NO
O=S(=O)(O)CCCN1CCOCC1	UniProt P14210	YES

---

SPR response by entry:
- Target entity: NK1 (Homo sapiens)
- Method: SPR fragment library screening against NK1
- Format: binding
- Design: made in house; host or cells: Pichia pastoris
- Recorded conditions: normalised relative value against NK1; fragments 500 μM (ESI Tables S3-S7)

Molecule	SPR response (%)
CC(=O)NCc1cccnc1	60
Cc1noc(N)c1C	39
Cc1cccc(CO)n1	72
O=C(O)C1CCNCC1	30
COC(=O)c1ccc(F)cc1Cl	70
COc1cccc(OC)c1SC	49
Nc1ccc(OC(F)F)cc1	72
Cc1cccc(C)c1C#N	94
Cc1cc(N)[nH]n1	56
c1ccc2[nH]ncc2c1	53
COC(=O)c1sc(C(C)(C)C)cc1N	34
FC(F)(F)c1cc[nH]n1	52
O=C(O)c1ccccc1C(=O)c1ccc(F)cc1	28
O=C(O)c1coc2c1C(=O)CCC2	87
NC(=O)Cc1ccc(O)cc1	43
Cc1cc(Cl)ccc1C(=O)O	61
CCOC(=O)c1cnc2n(c1=O)CCS2	37
COC(=O)c1ccc(C)c(Cl)c1	62
CN(C)C(=O)C1CCOCC1	38
COc1ccc(C#N)cn1	95
Cc1nc(-c2ccc(C#N)cc2)cs1	83
Cc1nc(C(N)=S)cs1	101
Cc1cccc(CN)c1C	105
Cc1nc(C(C)(C)C)cs1	62
Cc1ccsc1CN	118
COC(=O)c1scc(C)c1Cl	34
Cc1ccc(C(=O)O)cc1Cl	77
Nc1ccc(F)cc1F	83
Cc1cc(N)n(C)n1	54
CC1CCN(C(=O)C2CCCCN2)CC1 (stereo not drawn)	35
